Target: (pVIc-biotin):streptavidin complex (Human adenovirus 2 / Streptomyces …, UniProt P03274;P22629 P03274:240-250,P22629:25-183)
Sequence (P22629 25-183, one chain of several): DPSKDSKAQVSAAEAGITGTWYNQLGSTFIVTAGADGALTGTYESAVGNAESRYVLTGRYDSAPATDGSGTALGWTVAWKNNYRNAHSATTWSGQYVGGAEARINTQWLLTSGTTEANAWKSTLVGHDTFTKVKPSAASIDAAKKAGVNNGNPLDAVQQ
Assay: FRET quenching, 20 mM Na phosphate pH 7.5, 0.05% DDM
Details: tags: pVIc Cys10' PEG-biotin, streptavidin-Alexa Fluor 546 (Invitrogen); label: 5'-fluorescein
experimental_endpoint: Kd (nM)
Write the answer as a number in nM, unit excluded.

Task item: Recorded Kd for 18-mer dsDNA (dsDNA) DNA 1: CAGGAAACAGCTATGACC DNA 2: GGTCATAGCTGTTTCCTG , please?
Reply: 35
